Value source: ChEMBL document CHEMBL1131355

molecular target: UniProtKB P14842
Sequence (P14842 whole entry): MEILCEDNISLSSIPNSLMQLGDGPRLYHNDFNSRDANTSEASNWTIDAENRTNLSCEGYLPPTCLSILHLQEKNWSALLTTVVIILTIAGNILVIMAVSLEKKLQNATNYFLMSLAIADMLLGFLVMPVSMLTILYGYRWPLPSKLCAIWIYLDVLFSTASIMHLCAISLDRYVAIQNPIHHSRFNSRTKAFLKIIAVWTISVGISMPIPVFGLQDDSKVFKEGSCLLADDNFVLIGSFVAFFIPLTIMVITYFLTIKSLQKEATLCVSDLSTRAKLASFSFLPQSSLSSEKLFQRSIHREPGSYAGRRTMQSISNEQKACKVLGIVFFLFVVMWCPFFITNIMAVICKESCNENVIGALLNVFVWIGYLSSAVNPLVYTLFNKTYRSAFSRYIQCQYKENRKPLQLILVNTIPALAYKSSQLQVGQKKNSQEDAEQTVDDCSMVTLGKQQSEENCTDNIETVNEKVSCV
metric: Ki (nM)
Quick note: give the figure in nM, leave out the unit.

Q: State its Ki on UniProtKB P14842: O=C1CC(CN2CCC(C(=O)c3ccc(F)cc3)CC2)Cc2[nH]c3ccccc3c21 (stereo unspecified)
A: 9.12
